# Assayed system: IGF-1R (Homo sapiens (Human), UniProt P08069)
# Experiment description: Example B-2: IGF-1R Assay (PathHunter cell lines, EC80 agonist challenge)
# Type: cell-based
# Protocol conditions: read-out: IC50 (Biological Activity against IGF-1R)
# Sequence (P08069 31-1367, species assumed): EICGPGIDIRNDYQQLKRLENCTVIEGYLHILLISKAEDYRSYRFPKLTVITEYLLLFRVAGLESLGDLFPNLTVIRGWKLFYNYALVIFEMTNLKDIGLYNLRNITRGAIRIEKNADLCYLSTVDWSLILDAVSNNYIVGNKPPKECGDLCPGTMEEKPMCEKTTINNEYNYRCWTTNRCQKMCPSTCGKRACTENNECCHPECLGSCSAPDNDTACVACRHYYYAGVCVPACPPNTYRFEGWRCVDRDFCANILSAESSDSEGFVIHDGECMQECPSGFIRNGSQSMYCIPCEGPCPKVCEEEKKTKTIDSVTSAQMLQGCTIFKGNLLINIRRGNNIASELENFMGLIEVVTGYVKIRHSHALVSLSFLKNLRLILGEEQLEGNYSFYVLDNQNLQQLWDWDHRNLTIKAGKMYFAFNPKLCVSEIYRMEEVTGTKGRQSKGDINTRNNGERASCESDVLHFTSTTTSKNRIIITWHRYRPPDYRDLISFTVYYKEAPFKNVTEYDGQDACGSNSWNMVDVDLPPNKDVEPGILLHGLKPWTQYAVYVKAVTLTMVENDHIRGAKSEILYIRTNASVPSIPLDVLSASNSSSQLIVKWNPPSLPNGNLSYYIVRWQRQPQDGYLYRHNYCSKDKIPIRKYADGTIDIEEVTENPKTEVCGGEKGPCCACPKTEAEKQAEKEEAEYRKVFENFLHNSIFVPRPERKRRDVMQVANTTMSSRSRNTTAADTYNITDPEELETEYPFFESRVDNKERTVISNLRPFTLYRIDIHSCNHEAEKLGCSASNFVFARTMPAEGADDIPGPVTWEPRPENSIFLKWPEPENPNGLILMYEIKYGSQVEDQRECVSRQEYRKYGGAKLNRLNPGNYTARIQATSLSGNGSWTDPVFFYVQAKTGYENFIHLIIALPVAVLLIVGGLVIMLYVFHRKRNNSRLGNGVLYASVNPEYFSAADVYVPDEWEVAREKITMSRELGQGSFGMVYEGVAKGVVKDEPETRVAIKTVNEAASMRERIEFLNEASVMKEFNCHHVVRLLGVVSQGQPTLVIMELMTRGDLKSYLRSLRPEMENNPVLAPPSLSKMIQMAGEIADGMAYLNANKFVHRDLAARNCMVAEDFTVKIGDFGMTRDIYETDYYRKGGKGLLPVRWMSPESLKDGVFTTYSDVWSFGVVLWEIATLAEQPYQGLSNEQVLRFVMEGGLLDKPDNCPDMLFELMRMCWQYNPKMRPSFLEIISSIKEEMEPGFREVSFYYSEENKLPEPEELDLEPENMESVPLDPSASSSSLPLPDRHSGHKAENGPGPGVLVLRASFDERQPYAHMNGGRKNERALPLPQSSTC
Quantity measured: IC50

{"Molecule": "COc1nc(C2CCN(CC#N)CC2)ccc1Nc1nccc(Nc2cc3cccc(F)c3[nH]c2=O)n1", "Val": "500 to 2000 nM"}
{"Molecule": "COc1cc(N2CCNC3(CC3)C2)ncc1Nc1nccc(Nc2cc3cccc(F)c3[nH]c2=O)n1", "Val": "500 to 2000 nM"}
{"Molecule": "CN(C)C[C@@H]1COc2cc(Nc3nccc(Nc4cnc5ccc(Cl)cc5c4)n3)ccc2O1", "Val": "≤ 500 nM"}

Prompt line: API: value(readout= IC50, system= IGF-1R (Homo sapiens (Human), UniProt P08069), query= CN(C)CC1COc2cc(Nc3nccc(Nc4cc5ccccc5nc4C(N)=O)n3)ccc2O1 (centres unmarked) )
Response line: ≤ 500 nM

Prompt line: Give IGF-1R (Homo sapiens (Human), UniProt P08069) IC50 for CN(C)CC1COc2cc(Nc3nccc(Nc4cnc5ccc(Cl)cc5c4)n3)ccc2O1 (centres unmarked)
Response line: ≤ 500 nM

Prompt line: Query for IGF-1R (Homo sapiens (Human), UniProt P08069): what IC50 does the record show for CN(C)CC1COc2ccc(Nc3nccc(Nc4cnc5ccc(Cl)cc5c4)n3)cc2O1 (centres unmarked) ?
Response line: 500 to 2000 nM

Prompt line: Quick check: IC50 on IGF-1R (Homo sapiens (Human), UniProt P08069), item COc1cc(Nc2nccc(Nc3cnc4c(F)c(F)ccc4c3)n2)cnc1O[C@H]1C[C@@H](N(C)C)C1 ?
Response line: 500 to 2000 nM

Prompt line: Param readout = IC50; param system = IGF-1R (Homo sapiens (Human), UniProt P08069); param query = CN(C)CC1COc2cc(Nc3nccc(Nc4cnc5cc(F)c(F)cc5c4)n3)ccc2O1 (centres unmarked) ; response: value
Response line: ≤ 500 nM

----------
# Assayed system: IGF-1R (Homo sapiens (Human))
# Experiment description: Example B-1: IGF-1R Assay (PC3 cells, IGF1 stimulation, AlphaLISA)
# Type: cell-based
# Protocol conditions: 200 ng/mL IGF1 stimulation, read-out: Biological Activity against IGF-1R IC50
# Sequence (P08069 31-1367): as the sequence (P08069 31-1367, species assumed) above
Below: a set of entries, each annotated with reported IC50.

Prompt line: Fill blank: measured IC50 of the molecule COc1cc(Nc2nccc(Nc3cc4ccc(Cl)cc4[nH]c3=O)n2)ccc1O[C@H]1C[C@H](N(C)C)C1 [Compound 110] is ____.
Response line: ≤ 0.5 µM

----------
Listed here are compounds together with their documented pIC50.
# Assayed system: IGF-1R (Homo sapiens (Human))
# Experiment description: Example B-1: IGF-1R Assay (PC3 cells, IGF1 stimulation, AlphaLISA)
# Assay type: cell-based
# Protocol conditions: 200 ng/mL IGF1 stimulation, read-out: Biological Activity against IGF-1R IC50
pIC50: −log10 of the molar value.

Record excerpt, results attached:
{"Compound": "CS(=O)(=O)c1ccc2ncc(Nc3ccnc(Nc4ccc(OCCCN5CCOCC5)cc4)n3)cc2c1 [Compound 411]", "Assayed system": "IGF-1R (Homo sapiens (Human))", "pIC50": "5.00 to 5.70"}
{"Compound": "O=C1CN([C@H]2CC[C@@H](Oc3ccc(Nc4nccc(Nc5cnc6ccccc6c5)n4)cc3)CC2)CCN1 [Compound 41]", "Assayed system": "IGF-1R (Homo sapiens (Human))", "pIC50": "≥ 6.30"}
{"Compound": "COc1cc(Nc2nccc(Nc3cnc4c(c3)OCC(CN(C)C)O4)n2)ccc1O[C@H]1C[C@@H](N(C)C)C1 (stereo partly drawn) [Compound 179]", "Assayed system": "IGF-1R (Homo sapiens (Human))", "pIC50": "≥ 6.30"}
{"Compound": "COc1cc(Nc2nccc(Nc3cnc4ccc(Cl)cc4c3)n2)ccc1OCCCN1CCCCC1 [Compound 196]", "Assayed system": "IGF-1R (Homo sapiens (Human))", "pIC50": "≥ 6.30"}
{"Compound": "CN(C)CC1COc2ccc(Nc3nccc(Nc4cnc5ccccc5c4)n3)cc2O1 (stereo not drawn) [Compound 140]", "Assayed system": "IGF-1R (Homo sapiens (Human))", "pIC50": "≥ 6.30"}
{"Compound": "Clc1ccc2ncc(Nc3ccnc(Nc4ccc5c(c4)OCCO5)n3)cc2c1 [Compound 170]", "Assayed system": "IGF-1R (Homo sapiens (Human))", "pIC50": "5.70 to 6.30"}

Prompt line: For the compound COc1cc(Nc2nccc(Nc3cnc4cc(F)cc(F)c4c3)n2)ccc1O[C@H]1C[C@@H](N(C)C)C1 [Compound 118] , what pIC50 is on record?
Response line: ≥ 6.30

Prompt line: Given CC1(C)CCc2cc(Nc3ccnc(Nc4ccc(OCCCN5CCOCC5)cc4)n3)cnc2C1 [Compound 64] , state its recorded pIC50.
Response line: ≥ 6.30

Prompt line: Would you kindly share the measured pIC50 for COc1cc(Nc2nccc(Nc3cc4cccc(F)c4[nH]c3=O)n2)cnc1N1CCN(CC(F)(F)F)CC1 [Compound 232] ?
Response line: ≥ 6.30

----------
Parameter: pIC50. Scope: all listed entries.
# Assayed system: IGF-1R (Homo sapiens (Human), UniProt P08069)
# Experiment description: Example B-1: IGF-1R Assay (PC3 cells, IGF1 stimulation, AlphaLISA)
# Format: cell-based
# Protocol conditions: 200 ng/mL IGF1 stimulation, read-out: Biological Activity against IGF-1R IC50
pIC50: −log10 of the molar value.

// below: answered compounds
{"Compound": "COc1cc(Nc2nccc(Nc3cnc4c(F)cc(F)cc4c3)n2)ccc1O[C@H]1C[C@@H](N(C)C)C1 [Compound 113]", "Assayed system": "IGF-1R (Homo sapiens (Human), UniProt P08069)", "pIC50": "≥ 6.30"}
{"Compound": "COc1cc(Nc2nccc(Nc3cnc4c(c3)CC3(CCCC3)CC4)n2)ccc1O[C@H]1C[C@H](N(C)C)C1 [Compound 79]", "Assayed system": "IGF-1R (Homo sapiens (Human), UniProt P08069)", "pIC50": "≥ 6.30"}
{"Compound": "COc1cc(Nc2nccc(Nc3cnc4cc(F)c(F)cc4c3)n2)cnc1N1CCS(=N)(=O)CC1 [Compound 158]", "Assayed system": "IGF-1R (Homo sapiens (Human), UniProt P08069)", "pIC50": "5.70 to 6.30"}

Prompt line: What pIC50 value was documented for this compound, COc1cc(Nc2nccc(Nc3cnc4ccc(Cl)cc4c3)n2)cnc1N1CCN(CC#N)CC1 [Compound 479] ?
Response line: ≥ 6.30

Prompt line: I would be grateful if you could share the reported pIC50 for COc1cc(Nc2nccc(Nc3cnc4ccc(C(F)(F)F)cc4c3)n2)ccc1OCCCN1CCOCC1 [Compound 419] .
Response line: ≥ 6.30

----------
# Assayed system: IGF-1R (Homo sapiens (Human), UniProt P08069)
# Experiment description: Example B-1: IGF-1R Assay (PC3 cells, IGF1 stimulation, AlphaLISA)
# Assay type: cell-based
# Protocol conditions: 200 ng/mL IGF1 stimulation, read-out: Biological Activity against IGF-1R IC50
pIC50: −log10 of the molar value.
Quantity measured: pIC50

{"Molecule": "COCCN(C)[C@H]1C[C@@H](Oc2ccc(Nc3nccc(Nc4cnc5cc(F)c(F)cc5c4)n3)cc2OC)C1", "Val": "≥ 6.30"}
{"Molecule": "CN(C)[C@H]1C[C@H](Oc2ccc(Nc3nccc(Nc4cnc5ccccc5c4)n3)cc2C#N)C1", "Val": "≥ 6.30"}
{"Molecule": "COc1cc(N2CCN(C3COC3)CC2)ncc1Nc1nccc(Nc2cc3cccc(F)c3[nH]c2=O)n1", "Val": "≥ 6.30"}

Prompt line: Query the reported pIC50 for IGF-1R (Homo sapiens (Human), UniProt P08069); item: COc1cc(Nc2nccc(Nc3cnc4ccc(C5CC5)cc4c3)n2)ccc1OCCCN1CCCCC1
Response line: ≥ 6.30

Prompt line: // lookup pIC50 | system=IGF-1R (Homo sapiens (Human), UniProt P08069) | key= COc1cc(Nc2nccc(Nc3cc4ccccc4[nH]c3=O)n2)cnc1O[C@H]1C[C@@H](N(C)C)C1
Response line: ≥ 6.30

Prompt line: Short answer please: pIC50, IGF-1R (Homo sapiens (Human), UniProt P08069), entry CN(C)CC1COc2cc(Nc3nccc(Nc4cnc5ccc(Cl)cc5c4)n3)cnc2O1 (stereo not drawn)
Response line: ≥ 6.30

Prompt line: Form entry - test system: IGF-1R (Homo sapiens (Human), UniProt P08069); read-out: pIC50; molecule: COc1cc(Nc2nccc(Nc3cc4cccc(F)c4[nH]c3=O)n2)cnc1N1CCN(C)C(C)(C)C1
Response line: ≥ 6.30

Prompt line: Given the entry COc1cc(Nc2nccc(Nc3cnc4ccc(F)cc4c3)n2)ccc1OCCCN1CCCCC1 , what pIC50 was observed with IGF-1R (Homo sapiens (Human), UniProt P08069)?
Response line: ≥ 6.30
